What Kd was measured for each of the following?
- Experimental system: T1, human BCMA with a His tag (ACROBiosystems, Catalog No.: BCA-H522y) (human)
- T1 construct: Bought His-tagged recombinant protein; also called huBCMA-His; Recombinant human BCMA
- T1 chain: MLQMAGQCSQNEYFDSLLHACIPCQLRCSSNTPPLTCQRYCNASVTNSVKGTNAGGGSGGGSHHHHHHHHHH
- Experimental details: SPR, Biacore T200
Answer format: numeric, nM implied, no suffix.

What value of Kd has been recorded for this entry: SCT-Aa02(m/m) (antibody, V domains shown, Full IgG format: mouse IgG1 heavy chain constant region, mouse kappa light chain constant region) VH: EVKLLQSGGGLVQPGGSLKLSCAASGIDFSRYWMSWVRRAPGKGLEWIGEINPDSSTINSAPSLEDKFIISRDNAKNTLYLQMSKVRSEDTALYYCASLYYDYERDYAMDYWGQGASVTVSS VL: DIVMTQSQKFMSTSVGDRVSVTCKASQNVGTNVAWYQQKPGQSPKALIYSASYRFSGVPDRFTGSGSGTDFTLTISNVQSEDLAEYFCQQYHSYPFTFGGGTKLEIK
0.388

What value of Kd has been recorded for this entry: SCT-Aa11(m/m) (antibody, V domains shown, Full IgG format: mouse IgG1 heavy chain constant region, mouse kappa light chain constant region) VH: QVQLQQSDAELVKPGASVKISCKVSGYTFTDHTIHWMKQRPEQGLEWIGYIFPRDGTTKFNEMFKGKATLTADKSSSTAYMELNSLTSEDSAVYFCARWDYEGFDYWGQGTTLTVSS VL: DIVMTQSPATLSVTPGDRVSLSCRASQSISDYLHWYQQKSHESPRLLIKYASQFISGIPSRFRGSGSGSDFTLSINSVEPEDVGVYYCQNGHSFPPTFGSGTKLEIK
42
